- TARGET DESC: Proto-oncogene tyrosine-protein kinase Src (Homo sapiens) (UniProt P12931)
- Sequence (P12931 2-536 limits assumed): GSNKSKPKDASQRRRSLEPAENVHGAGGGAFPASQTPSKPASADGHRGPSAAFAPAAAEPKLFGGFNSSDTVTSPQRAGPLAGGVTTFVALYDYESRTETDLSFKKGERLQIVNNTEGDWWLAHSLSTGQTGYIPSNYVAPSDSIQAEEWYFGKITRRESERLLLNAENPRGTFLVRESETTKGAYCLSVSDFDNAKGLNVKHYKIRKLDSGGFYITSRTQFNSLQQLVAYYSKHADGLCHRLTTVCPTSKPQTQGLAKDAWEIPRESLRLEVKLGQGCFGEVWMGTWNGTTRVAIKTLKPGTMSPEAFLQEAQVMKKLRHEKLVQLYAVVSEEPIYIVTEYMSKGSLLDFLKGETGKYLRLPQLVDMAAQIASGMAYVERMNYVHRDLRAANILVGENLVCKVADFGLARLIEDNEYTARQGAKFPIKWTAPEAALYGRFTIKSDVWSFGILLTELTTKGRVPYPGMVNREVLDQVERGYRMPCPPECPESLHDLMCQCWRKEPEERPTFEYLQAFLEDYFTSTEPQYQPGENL
- PROTOCOL: Inhibition of c-Src (unknown origin) using [33P]-ATP as substrate at 10 uM after 30 mins by scintillation counting analysis relative to control
Answer each item with its documented inhibition.
Write down the numeric answer in % and omit the unit.

Q: For Proto-oncogene tyrosine-protein kinase Src (Homo sapiens) (UniProt P12931), give the measured inhibition of the entry O=C1N(c2ccccc2)c2nc[nH]c(=O)c2C2CCCCCN12 (centres undefined)
Ans: 81

Q: # lookup: Proto-oncogene tyrosine-protein kinase Src (Homo sapiens) (UniProt P12931) inhibition, key = N#CC1=C(N2C(=O)C(=O)N(c3ccccc3)C2=O)N(c2ccccc2)C(=O)N2CCCC12 (centres undefined)
Ans: 45

Q: Find inhibition for N=c1c2c([nH]c(=O)n1-c1ccccc1)N(c1ccccc1)C(=O)N1CCCC21 (centres undefined) on Proto-oncogene tyrosine-protein kinase Src (Homo sapiens) (UniProt P12931) and write it down.
Ans: 0

Q: Name the value of inhibition reported for N#CCC(=O)NC1=C(C#N)C2CCCN2C(=O)N1c1ccccc1 (centres undefined) when tested on Proto-oncogene tyrosine-protein kinase Src (Homo sapiens) (UniProt P12931).
Ans: 0
